pIC50 for assorted molecules
- Tested Target: Tyrosine-protein phosphatase non-receptor type 22 (Homo sapiens)
- Sequence (Q9Y2R2 whole entry): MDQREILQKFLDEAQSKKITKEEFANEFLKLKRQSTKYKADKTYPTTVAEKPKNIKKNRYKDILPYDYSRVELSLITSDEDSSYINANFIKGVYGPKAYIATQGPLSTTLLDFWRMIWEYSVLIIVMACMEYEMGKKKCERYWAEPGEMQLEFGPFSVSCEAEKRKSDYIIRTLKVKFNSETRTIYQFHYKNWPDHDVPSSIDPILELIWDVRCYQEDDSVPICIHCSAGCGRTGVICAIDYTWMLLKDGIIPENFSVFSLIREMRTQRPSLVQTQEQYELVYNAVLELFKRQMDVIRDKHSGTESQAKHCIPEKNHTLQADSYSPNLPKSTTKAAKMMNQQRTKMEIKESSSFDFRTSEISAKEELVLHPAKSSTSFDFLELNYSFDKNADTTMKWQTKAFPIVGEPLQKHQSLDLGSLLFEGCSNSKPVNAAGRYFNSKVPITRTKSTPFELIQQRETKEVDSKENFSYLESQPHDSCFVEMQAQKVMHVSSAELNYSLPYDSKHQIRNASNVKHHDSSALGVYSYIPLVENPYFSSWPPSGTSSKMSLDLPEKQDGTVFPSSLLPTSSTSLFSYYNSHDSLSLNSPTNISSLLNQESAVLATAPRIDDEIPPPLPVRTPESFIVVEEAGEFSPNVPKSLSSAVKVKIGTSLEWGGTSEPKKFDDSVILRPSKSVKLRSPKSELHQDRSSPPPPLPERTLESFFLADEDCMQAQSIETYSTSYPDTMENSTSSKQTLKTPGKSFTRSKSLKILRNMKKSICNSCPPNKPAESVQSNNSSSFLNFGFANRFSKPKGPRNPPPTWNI
- Experiment: LYP phosphatase inhibitors, dose response, biochemical, fluorescence intensity, uHTS hits, set 2 (AID 435024)
pIC50: −log10 of the molar value.
Measurement Label: pIC50

In [3]: df
Out[3]:
                                   molecule                             tested_target  measurement_label  comparative_sign  recorded_number
0  N=C(NN=Cc1ccc2c(c1)OCO2)Sc1cc(O)n(-c2ccc(C(=O)O)cc2)c1O  Tyrosine-protein phosphatase non-receptor type 22 (Homo sapiens)              pIC50                 =             5.07
1  CCOC(=O)NC(=O)C(C=Nc1ccc(C)cc1)C(=O)NC(=O)OCC  Tyrosine-protein phosphatase non-receptor type 22 (Homo sapiens)              pIC50                 <             4.10
2  Cc1ccc(NN=C2C(=O)N(CN3CCOCC3)c3ccccc32)cc1  Tyrosine-protein phosphatase non-receptor type 22 (Homo sapiens)              pIC50                 <             4.10
3  O=C1C([N+](=O)[O-])=CC(Br)=CC1/C=N/n1cnnc1 (stereo not given)  Tyrosine-protein phosphatase non-receptor type 22 (Homo sapiens)              pIC50                 <             4.10
4  COC1=CC=CC(/C=N/NC(=O)c2cc3cc([N+](=O)[O-])ccc3s2)C1=O (stereo not given)  Tyrosine-protein phosphatase non-receptor type 22 (Homo sapiens)              pIC50                 =             4.88
